Values from patent US5175163A

system: Hexobarbital narcosis; experiment: Hexobarbital narcosis potentiating effect; conditions: hexobarbital narcosis, white mice; Table V
Value type: Therapeutical index

# Therapeutical index measured on Hexobarbital narcosis for item Nc1nc(N2CCOCC2)nn1C(=S)NCCCOc1cccc(CN2CCCCC2)c1 = > 40

# Therapeutical index measured on Hexobarbital narcosis for item CCCC(C)(COC(N)=O)COC(N)=O [Meprobamate, reference compound] = 4.1

# Therapeutical index measured on Hexobarbital narcosis for item C=CCN(CC=C)c1nc(N)n(C(=S)NCCCOc2cccc(CN3CCCCC3)c2)n1 = > 5

# Therapeutical index measured on Hexobarbital narcosis for item CN(C)c1nc(N)n(C(=S)NCCCOc2cccc(CN3CCCCC3)c2)n1 = > 9

* * *

Consider the following compounds; for each one, report its LD50.
test: in vivo

So, CN1CCN(c2nc(N)n(C(=S)NCCCOc3cccc(CN4CCCCC4)c3)n2)CC1 ? Its LD50 was > 1000 mg/kg

So, Nc1nc(N2CCOCC2)nn1C(=S)NCCCOc1cccc(CN2CCCCC2)c1 ? Its LD50 was > 2000 mg/kg

So, COc1ccc(CCNC(=S)n2nc(SC)nc2N)cc1OC ? Its LD50 was > 2000 mg/kg

So, C=CCN(CC=C)c1nc(N)n(C(=S)NCCCOc2cccc(CN3CCCCC3)c2)n1 ? Its LD50 was > 1000 mg/kg

So, CN(C)CCC=C1c2ccccc2CCc2ccccc21 [Amitryptiline, reference compound] ? Its LD50 was 225 mg/kg

So, CN(C)c1nc(N)n(C(=S)NCCCOc2cccc(CN3CCCCC3)c2)n1 ? Its LD50 was > 1000 mg/kg

So, CCCC(C)(COC(N)=O)COC(N)=O [Meprobamate, reference compound] ? Its LD50 was 1100 mg/kg
